Values were extracted from patent US20230348573A1.

Can you tell me IC50 of pseudovirus infection (luciferase) for the items I'm about to list?
- SYSTEM_NAME: spike protein of SARS-CoV-2 β strain on pseudovirus (SARS-CoV-2 (β strain))
- TEST: cell-based or functional assay
Dear colleague, please return just the value in ng/mL, with no unit written.

Data request: Look at this binder and give its reported IC50 of pseudovirus infection (luciferase). Ab709TK (antibody, V domains shown) VH: QVQLVESGGGVVQPGKSLRLSCAASGFTFSSYAMHWVRLAPGKGLEWVAVISPDGKNKYYVDSVKGRSTISRDNSKNTLYLLMNSLRAEDTAVYYCATTQSLWFGQFYYIYGMDVWGQGTTVTVSS VL: QSVLTQPHSVSESPGKTITISCTGSSGSIASNYVQWYQQRPGSAPTTVIYEDTERPSGVPDRFSGSIDSSSNSASLTISGLKTEDEADYYCQSYDSNNVVFGGGTKLTVL
Data returned: 5.8

Data request: Look at this binder and give its reported IC50 of pseudovirus infection (luciferase). Ab864 (antibody, V domains shown) VH: EVQLVESGGGLVQPGRSLRLSCAASGFTFDDYAMHWVRQVPGKGLEWVSGISWNKGNIDYADSVKGRFTISRDNAKNSLYLQMNSLRPEDTGLYYCAKDCHYDSPGYFPNCLHSWGQGTLVTVSS VL: EIVMTQSPSSLSASVGDRVTITCRASQGINTYLAWYQQKPGKAPKLLIYTASTLQSGVPSRFSGSGSGTDFTLTISSLQPEDFATYYCQQVHSYPLTFGGGTKVEIK
Data returned: 4.4

Data request: Look at this binder and give its reported IC50 of pseudovirus infection (luciferase). Ab159 (antibody, V domains shown) VH: QVQLVESGGGLVKPGGSLRLSCAASGFTFNNAWMSWVRQAPGKGLEWVGRIKSKTDGGTTDYAAPVKGRFTFSRDDSKNTLYLQMSSLKTEDTALYYCTTADYDILTGTPASPYWGQGTLVTVSS VL: DIQMTQSPSSLSASVGDRVTITCRASQSITNYLNWYQQKPGKAPKFLIYAASSLQGGVPSRFRGSGSGTDFTLTISSLQPEDFATYYCQQTYSTLWTFGQGTKVEIK
Data returned: 5.37
